# Measured On: Tau-FynSH3 interaction (Homo sapiens (Human))
# Test Summary: Tau-FynSH3 AlphaScreen
# Assay type: binding
# Run Parameters: read-out: IC50 in the Tau-FynSH3 AlphaScreen

Compound String	Measured On	IC50
O=C(CN1C(=O)CSc2ccccc21)Nc1nnc(-c2ccccn2)[nH]1	Tau-FynSH3 interaction (Homo sapiens (Human))	840 nM

====

# Test Summary: Partition coefficient (LogD)
# Format: physicochemical
# Run Parameters: Table 3; read-out: ADME LogD
Recorded logD, one value per entry.
Result Type: logD

Compound String	Meas Value
O=C(Cn1c(=O)sc2ccccc21)Nc1nnc(-c2ccccn2)[nH]1	1.5
O=C(CN1C(=O)CSc2cc(F)ccc21)Nc1nnc(-c2ccccn2)[nH]1	2.4
O=C(CN1C(=O)CSc2cc(F)c(F)cc21)Nc1nnc(-c2ccccn2)[nH]1	1.9
O=C(CN1CCOc2ccccc21)Nc1nnc(-c2ccccn2)[nH]1	1.8
O=C(CN1CCSc2ccccc21)Nc1nnc(-c2ccccn2)[nH]1	2.3
O=C(CCN1C(=O)CSc2cc(F)c(F)cc21)Nc1nnc(-c2ccccn2)[nH]1	1.8
O=C(CN1C(=O)CCSc2ccccc21)Nc1nnc(-c2ccccn2)[nH]1	1.3
O=C(CCN1C(=O)CSc2cc(F)ccc21)Nc1nnc(-c2ccccn2)[nH]1	2
O=C(CN1C(=O)CSc2cc(Cl)ccc21)Nc1nnc(-c2ccccn2)[nH]1	3.1
CC1(C)Sc2ccccc2N(CC(=O)Nc2nnc(-c3ccccn3)[nH]2)C1=O	1.3
COc1ccc2c(c1)N(CC(=O)Nc1nnc(-c3ccccn3)[nH]1)C(=O)CS2	1.8
O=C(CN1CCCc2ccccc21)Nc1nnc(-c2ccccn2)[nH]1	2.3
O=C(CCN1C(=O)CSc2cc(Cl)ccc21)Nc1nnc(-c2ccccn2)[nH]1	2.3
COc1ccc2c(c1)SCC(=O)N2CC(=O)Nc1nnc(-c2ccccn2)[nH]1	1.7
Cc1ccc2c(c1)SCC(=O)N2CC(=O)Nc1nnc(-c2ccccn2)[nH]1	2.2
O=C(CN1C(=O)CSc2ccc(F)cc21)Nc1nnc(-c2ccccn2)[nH]1	1.8
O=C(CN1C(=O)CSc2ccc(Cl)cc21)Nc1nnc(-c2ccccn2)[nH]1	2.3

====

# Measured On: full-length Tau (Homo sapiens (Human), UniProt P10636)

Compound String	Kd, µM
O=C(CN1CCOc2ccccc21)Nc1nnc(-c2ccccn2)[nH]1	11.9

====

Recorded half-life, one value per entry.
# Test Summary: Metabolic stability in mouse liver microsomes
# Assay type: in vitro ADME
# Run Parameters: mouse, liver microsomes, Table 3, read-out: ADME t1/2 (min): MLMt1/2

Compound String	half-life
COc1ccc2c(c1)SCC(=O)N2CC(=O)Nc1nnc(-c2ccccn2)[nH]1	53 min
CC1(C)Sc2ccccc2N(CC(=O)Nc2nnc(-c3ccccn3)[nH]2)C1=O	8 min
O=C(CN1CCSc2ccccc21)Nc1nnc(-c2ccccn2)[nH]1	9 min
COc1ccc2c(c1)N(CC(=O)Nc1nnc(-c3ccccn3)[nH]1)C(=O)CS2	56 min

====

# Measured On: Tau-FynSH3 interaction (Homo sapiens (Human), UniProt P10636)
# Sequence (P10636 other isoform, or with tags, fused parts or gaps): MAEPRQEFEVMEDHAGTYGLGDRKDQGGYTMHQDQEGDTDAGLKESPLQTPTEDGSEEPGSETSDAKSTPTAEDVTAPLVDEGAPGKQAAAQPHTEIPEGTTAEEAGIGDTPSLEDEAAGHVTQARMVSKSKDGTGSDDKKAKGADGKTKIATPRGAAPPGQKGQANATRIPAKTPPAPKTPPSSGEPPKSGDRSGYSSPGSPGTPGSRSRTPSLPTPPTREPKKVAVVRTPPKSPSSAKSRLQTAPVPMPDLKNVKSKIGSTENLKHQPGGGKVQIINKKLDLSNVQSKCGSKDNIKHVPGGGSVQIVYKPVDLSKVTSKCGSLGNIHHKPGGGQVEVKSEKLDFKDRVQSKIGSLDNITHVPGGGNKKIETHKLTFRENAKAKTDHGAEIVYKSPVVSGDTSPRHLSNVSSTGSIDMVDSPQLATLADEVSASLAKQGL
# Test Summary: Tau-FynSH3 AlphaScreen
# Assay type: binding
# Run Parameters: Table 3; read-out: Alpha screen IC50
Recorded IC50, one value per entry.
Result Type: IC50 (nM)

Compound	Result Type	Result Unit	Meas Value
O=C(CN1C(=O)CSc2ccc(F)cc21)Nc1nnc(-c2ccccn2)[nH]1 [compound 15]	IC50	nM	1080
O=C(CCN1C(=O)CSc2cc(F)ccc21)Nc1nnc(-c2ccccn2)[nH]1 [compound 7]	IC50	nM	1920
O=C(CCN1C(=O)CSc2ccccc21)Nc1ncc(-c2ccccn2)[nH]1 [compound no. 5]	IC50	nM	3240
O=C(CN1C(=O)CSc2ccc(Cl)cc21)Nc1nnc(-c2ccccn2)[nH]1 [compound 16]	IC50	nM	2580
O=C(CCN1C(=O)CSc2cc(Cl)ccc21)Nc1nnc(-c2ccccn2)[nH]1 [compound 8]	IC50	nM	2720
O=C(CN1C(=O)COc2cc(F)ccc21)Nc1nnc(-c2ccccn2)[nH]1 [compound 46]	IC50	nM	2960
COc1ccc2c(c1)SCC(=O)N2CC(=O)Nc1nnc(-c2ccccn2)[nH]1 [compound 21]	IC50	nM	1030
Cc1ccc2c(c1)OCC(=O)N2CC(=O)Nc1nnc(-c2ccccn2)[nH]1 [compound 53]	IC50	nM	1600
O=C(CN1C(=O)CCc2cc(Cl)ccc21)Nc1nnc(-c2ccccn2)[nH]1 [compound 48]	IC50	nM	1200
O=C(CN1CCOc2ccccc21)Nc1nnc(-c2ccccn2)[nH]1 [compound 47]	IC50	nM	910
O=C(CCN1C(=O)CSc2cc(C(F)(F)F)ccc21)Nc1nnc(-c2ccccn2)[nH]1 [compound 11]	IC50	nM	3450
COc1ccc2c(c1)N(CC(=O)Nc1nnc(-c3ccccn3)[nH]1)C(=O)CO2 [compound 49]	IC50	nM	1600
O=C(CN1C(=O)CSc2cc(C(F)(F)F)ccc21)Nc1nnc(-c2ccccn2)[nH]1 [compound 17]	IC50	nM	5420
O=C(Cn1c(=O)sc2ccccc21)Nc1nnc(-c2ccccn2)[nH]1 [compound 26]	IC50	nM	1010
COc1ccc2c(c1)N(CC(=O)Nc1nnc(-c3ccccn3)[nH]1)C(=O)CC2 [compound 50]	IC50	nM	1600
O=C(CN1C(=O)CCc2cc(F)ccc21)Nc1nnc(-c2ccccn2)[nH]1 [compound 51]	IC50	nM	1600
O=C(CN1C(=O)COc2cc(Cl)ccc21)Nc1nnc(-c2ccccn2)[nH]1 [compound 52]	IC50	nM	1600
O=C(CCN1C(=O)CSc2ccc(Cl)cc21)Nc1nnc(-c2ccccn2)[nH]1 [compound 10]	IC50	nM	6780

====

Recorded half-life, one value per entry.
# Test Summary: Metabolic stability in human liver microsomes
# Type: in vitro ADME
# Run Parameters: Table 3, read-out: ADME t1/2 (min): HLMt1/2

Compound	half-life
O=C(Cn1c(=O)sc2ccccc21)Nc1nnc(-c2ccccn2)[nH]1 [compound 26]	> 300 min
O=C(CN1C(=O)CSc2cc(F)ccc21)Nc1nnc(-c2ccccn2)[nH]1 [compound no. 12]	> 300 min
O=C(CN1CCSc2ccccc21)Nc1nnc(-c2ccccn2)[nH]1 [compound no. 20]	85 min
O=C(CN1C(=O)CCSc2ccccc21)Nc1nnc(-c2ccccn2)[nH]1 [compound 18]	152 min
CC1(C)Sc2ccccc2N(CC(=O)Nc2nnc(-c3ccccn3)[nH]2)C1=O [compound 19]	28 min
O=C(CN1C(=O)CSc2ccc(Cl)cc21)Nc1nnc(-c2ccccn2)[nH]1 [compound 16]	74 min
O=C(CCN1C(=O)CSc2cc(F)c(F)cc21)Nc1nnc(-c2ccccn2)[nH]1 [compound 9]	53 min
O=C(CN1C(=O)CSc2cc(Cl)ccc21)Nc1nnc(-c2ccccn2)[nH]1 [compound no. 13]	> 120 min

All values here come from patent US20250367209A1.
